Tested on: HIV-1 patient-derived protease and reverse transcriptase segments (N88S in PR) in resistance test vectors
Assay: Phenotypic drug susceptibility test with resistance test vectors from patient samples
Type: cell-based
Conditions: patient sample RTV-627
readout-name: change in susceptibility

CC(C)CN(C[C@@H](O)[C@H](Cc1ccccc1)NC(=O)O[C@H]1CCOC1)S(=O)(=O)c1ccc(N)cc1; increase
Cc1c(O)cccc1C(=O)N[C@@H](CSc1ccccc1)[C@H](O)CN1C[C@H]2CCCC[C@H]2C[C@H]1C(=O)NC(C)(C)C; decrease
CC(C)(C)NC(=O)[C@@H]1CN(Cc2cccnc2)CCN1C[C@@H](O)C[C@@H](Cc1ccccc1)C(=O)N[C@H]1c2ccccc2C[C@H]1O; decrease
CC(C)(C)NC(=O)[C@@H]1C[C@@H]2CCCC[C@@H]2CN1C[C@@H](O)[C@H](Cc1ccccc1)NC(=O)[C@H](CC(N)=O)NC(=O)c1ccc2ccccc2n1; increase
